target: CYP2C19 (Homo sapiens, UniProt P33261); assay: Inhibition of CYP2C19 in human liver microsomes at 10 uM relative to control; assay type: ADME, Microsome; details: liver microsomes
Sequence (P33261 whole entry): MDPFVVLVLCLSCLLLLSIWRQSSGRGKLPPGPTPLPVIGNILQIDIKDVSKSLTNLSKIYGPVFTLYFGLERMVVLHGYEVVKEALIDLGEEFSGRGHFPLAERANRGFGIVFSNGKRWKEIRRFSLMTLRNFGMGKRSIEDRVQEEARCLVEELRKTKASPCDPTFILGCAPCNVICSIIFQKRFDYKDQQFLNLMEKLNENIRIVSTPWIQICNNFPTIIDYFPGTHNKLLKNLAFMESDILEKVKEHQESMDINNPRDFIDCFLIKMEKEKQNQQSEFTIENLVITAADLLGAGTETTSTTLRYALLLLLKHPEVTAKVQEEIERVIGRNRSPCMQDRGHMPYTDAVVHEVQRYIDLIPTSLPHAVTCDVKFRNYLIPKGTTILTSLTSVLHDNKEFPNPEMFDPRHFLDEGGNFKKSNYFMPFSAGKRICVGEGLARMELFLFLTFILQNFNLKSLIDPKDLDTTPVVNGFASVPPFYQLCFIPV
Quantity measured: inhibition at 10 µM (%)
Give bare numbers, in %.

Query string: Endpoint output: inhibition at 10 µM of `C[C@H]1CN(CC[C@H](O)C2CCCCC2)CC[C@@]1(C)c1cccc(O)c1` . Value?
Result string: 35.1

---

molecular target: UniProtKB P08684; assay: Inhibition of CYP3A4 in human liver microsomes at 10 uM relative to control; assay type: ADME, Microsome; conditions: microsomes, 10 µM
Sequence (P08684 whole entry): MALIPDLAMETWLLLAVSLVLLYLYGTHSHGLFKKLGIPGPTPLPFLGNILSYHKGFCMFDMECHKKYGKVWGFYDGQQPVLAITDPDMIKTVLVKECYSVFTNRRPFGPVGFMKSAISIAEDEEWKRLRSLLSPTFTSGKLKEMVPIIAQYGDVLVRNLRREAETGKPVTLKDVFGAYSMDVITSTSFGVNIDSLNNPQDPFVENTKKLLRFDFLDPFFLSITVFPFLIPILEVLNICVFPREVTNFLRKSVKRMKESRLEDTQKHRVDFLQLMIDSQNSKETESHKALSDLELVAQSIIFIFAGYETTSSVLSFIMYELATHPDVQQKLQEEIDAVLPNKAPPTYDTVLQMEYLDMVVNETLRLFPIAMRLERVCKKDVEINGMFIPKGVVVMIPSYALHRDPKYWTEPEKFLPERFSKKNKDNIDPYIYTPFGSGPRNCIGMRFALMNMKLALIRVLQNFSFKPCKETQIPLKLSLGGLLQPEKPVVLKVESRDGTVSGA
Quantity measured: inhibition (INH) (%)
One number for each entry, in %.

Worked examples, 5 compounds total:
Molecule smiles	Result unit	Readout number
NC(=O)c1ccc(Oc2ccc(CNCCc3ccccc3)cc2Cl)nc1	%	0
C=C1CC[C@@]2(O)[C@H]3Cc4ccc(O)c5c4[C@@]2(CCN3CC2CC2)[C@H]1O5	%	0.2
NC(=O)c1ccc(Oc2ccc(CNCCc3ccccc3)cc2)nc1	%	6.8
COc1cc(CNCCc2ccccc2)ccc1Oc1ccc(C(N)=O)cn1	%	7.8
NC(=O)c1ccc(Oc2ccc(CNCCc3ccccc3)cc2)cc1	%	0

Field: next compound
Query string: Endpoint output: inhibition (INH) of `COc1cc(CNCCC(C)C)ccc1Oc1ccc(C(N)=O)cn1` . Value?
Result string: 3.8

---

target: Delta-type opioid receptor (Homo sapiens); test: Antagonist activity against human DOR expressed in CHO-K1 cells assessed as maximal inhibition of forskolin-induced cAMP accumulation pretreated for 15 mins followed by forskolin addition measured after 30 mins by HitHunter cAMP assay normalized to naltrexone; type: functional, cell-based; settings: filed as antagonist, time 45.0 min
Sequence (P41143 whole entry): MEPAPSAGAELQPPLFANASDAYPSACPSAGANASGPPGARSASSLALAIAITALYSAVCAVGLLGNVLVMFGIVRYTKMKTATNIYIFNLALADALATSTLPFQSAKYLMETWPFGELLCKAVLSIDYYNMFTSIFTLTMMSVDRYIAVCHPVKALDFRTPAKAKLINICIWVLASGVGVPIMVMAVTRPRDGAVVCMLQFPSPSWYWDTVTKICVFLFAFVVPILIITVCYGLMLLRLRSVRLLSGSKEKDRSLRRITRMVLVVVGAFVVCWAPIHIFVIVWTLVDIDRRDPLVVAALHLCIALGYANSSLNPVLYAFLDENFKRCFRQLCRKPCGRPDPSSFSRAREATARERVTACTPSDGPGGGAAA
Quantity measured: Imax (%)
Give bare numbers, in %.

Count: 8. Required value per item: Imax.
1. C[C@H]1CN(CC[C@H](O)C2CCCCC2)CC[C@@]1(C)c1cccc(O)c1
2. NC(=O)c1ccc(Oc2ccc(CNCCc3ccccc3)cc2OCc2ccccc2)nc1
3. NC(=O)c1ccc(Oc2ccc(CNCCc3ccccc3)cc2)nc1
4. NC(=O)c1ccc(Oc2ccc(CNCCc3ccccc3)cc2Cl)nc1
5. C=CCN1CC[C@]23c4c5ccc(O)c4O[C@H]2[C@@H](OCCOCCOCCOCCOCCOCCOCCOC)CC[C@@]3(O)[C@H]1C5
6. COc1cc(CNCCc2ccccc2)ccc1Oc1ccc(C(N)=O)cn1
7. COc1cc(CNCCC(C)C)ccc1Oc1ccc(C(N)=O)cn1
8. COc1cc(CNC2Cc3ccccc3C2)ccc1Oc1ccc(C(N)=O)cn1

Result string:
[155, 152, 230, 158, 103, 157, 187, 168]

---

biological target: CYP2D6 (Homo sapiens, UniProt P10635); assay: Inhibition of CYP2D6 in human liver microsomes at 10 uM relative to control; format: ADME, Microsome; conditions: liver microsomes
Sequence (P10635 whole entry): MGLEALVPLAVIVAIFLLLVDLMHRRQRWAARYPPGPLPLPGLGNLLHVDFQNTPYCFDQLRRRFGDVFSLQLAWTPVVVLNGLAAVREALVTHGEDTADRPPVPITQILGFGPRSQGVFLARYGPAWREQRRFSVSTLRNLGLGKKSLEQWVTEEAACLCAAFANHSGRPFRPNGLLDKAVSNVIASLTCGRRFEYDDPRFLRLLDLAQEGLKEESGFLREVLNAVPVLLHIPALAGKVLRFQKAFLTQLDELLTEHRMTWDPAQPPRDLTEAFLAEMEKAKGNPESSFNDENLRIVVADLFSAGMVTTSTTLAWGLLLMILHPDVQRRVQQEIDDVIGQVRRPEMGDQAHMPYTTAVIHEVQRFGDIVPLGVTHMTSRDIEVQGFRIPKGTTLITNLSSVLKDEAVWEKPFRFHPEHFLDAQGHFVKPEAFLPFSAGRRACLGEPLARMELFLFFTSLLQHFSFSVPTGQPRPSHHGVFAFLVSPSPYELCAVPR
Quantity measured: inhibition at 10 µM (%)
Give bare numbers, in %.

Query string: Endpoint output: inhibition at 10 µM of `C[C@H]1CN(CC[C@H](O)C2CCCCC2)CC[C@@]1(C)c1cccc(O)c1` . Value?
Result string: 86.4

---

assay: Cmax in Sprague-Dawley rat plasma at 1 mg/kg, ip by LC-MS/MS analysis; format: ADME, organism-based
Quantity measured: Cmax
I'd appreciate it if you included the unit after the number.

Query string: Endpoint output: Cmax of `Cl.NC(=O)c1ccc(Oc2ccc(CNCCc3ccccc3)cc2)nc1` . Value?
Result string: 0.0928 µg/mL
